The origin of these recorded values is the supplement of paper PMC7156485.

# H1.0 immunofluorescence intensity values compiled below
- System: TDF;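 note: TDF is a line of transformed human dermal fibroblasts of mesenchymal origin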
- Assay method text: H1.0 immunofluorescence intensity relative to DMSO (% of DMSO); higher = stronger H1.0 induction, active = 120 or more
- Experimental parameters: concentration: 10 µM; 24 h

{"Molecule": "CCC(C)C=C(C)C=CC1=CC2=C(Cl)C(=O)C(C)(OC(C)=O)C(=O)C2=CO1 (stereo not drawn)", "Measured on": "TDF", "H1.0 immunofluorescence intensity": "95.7 (inactive)"}

Which H1.0 immunofluorescence intensity is listed for Cl.OCC1C(O)C(O)C2C(O)CCN12 (stereo not drawn) ? 97 (inactive)

Which H1.0 immunofluorescence intensity is listed for CC(=O)[C@H]1CC[C@H]2[C@@H]3CC[C@H]4C[C@](C)(O)CC[C@]4(C)[C@H]3CC[C@]12C [(3alpha,5alpha)-3-hydroxy-3-methylpregnan-20-one] ? 101 (inactive)

Which H1.0 immunofluorescence intensity is listed for "Cc1[nH]c2ccc(Cl)cc2c1C1=CCNCC1.Cl" ? 107 (inactive)

Which H1.0 immunofluorescence intensity is listed for "COc1ccc(O)c(C(C)(C)C)c1" ? 94.5 (inactive)

Which H1.0 immunofluorescence intensity is listed for CCCC[N+]1(C)C2CC(OC(=O)C(CO)c3ccccc3)CC1C1OC12.[Br-] (single isomer, unassigned; (-)) [(-)-Scopolamine,n-Butyl-, bromide] ? 96 (inactive)

Which H1.0 immunofluorescence intensity is listed for "O=S1(=O)N(CCN2CC=C(c3c[nH]c4cc(F)ccc34)CC2)c2cccc3c2N1CCC3" ? 95.4 (inactive)

Which H1.0 immunofluorescence intensity is listed for Cl.NCCc1ccc(O)cc1 [4-Hydroxyphenethylamine hydrochloride] ? 96.7 (inactive)

Which H1.0 immunofluorescence intensity is listed for CN(C)C(=O)Oc1ccc[n+](C)c1.[Br-] [Pyridostigmine bromide] ? 96.8 (inactive)

Which H1.0 immunofluorescence intensity is listed for CCC(CO)NC(=O)C1C=C2c3cccc4[nH]cc(c34)CC2N(C)C1.O=C(O)C=CC(=O)O (stereo not drawn) [Methylergonovine maleate] ? 97.4 (inactive)

Which H1.0 immunofluorescence intensity is listed for Br.COC(=O)C1=CCCN(C)C1 [Arecoline hydrobromide] ? 93.3 (inactive)

====

# cell number values compiled below
- System: HCC1569;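 note: TDF denotes transformed human dermal fibroblasts of mesenchymal origin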
- Assay method text: cell number relative to DMSO (% of DMSO); higher = more cells (less growth inhibition / toxicity)
- Experimental parameters: concentration: 10 µM; 24 h
Give a plain numeric answer without units written out.

Below are worked cases with known answers.
{"Compound": "CN(C)C(=O)Oc1cccc([N+](C)(C)C)c1.COS(=O)(=O)[O-]", "Measured on": "HCC1569", "Value": 109}
{"Compound": "NC(=O)c1cc(N2CC2)c([N+](=O)[O-])cc1[N+](=O)[O-]", "Measured on": "HCC1569", "Value": 96.1}
{"Compound": "CC1CC2CCC(O2)C(C)C(=O)OC(C)CC2CCC(O2)C(C)C(=O)OC(C)CC2CCC(O2)C(C)C(=O)OC(C)CC2CCC(O2)C(C)C(=O)O1 (centres undefined)", "Measured on": "HCC1569", "Value": 60.4}
{"Compound": "CC1OC(OC2CC(O)C3(CO)C4C(O)CC5(C)C(C6=CC(=O)OC6)CCC5(O)C4CCC3(O)C2)C(O)C(O)C1O (centres undefined)", "Measured on": "HCC1569", "Value": 46.2}
{"Compound": "Cl.O=C(OC1CCN(CCCl)CC1)C(c1ccccc1)c1ccccc1 [4-Diphenylacetoxy-N-(2-chloroethyl)piperidine hydrochloride]", "Measured on": "HCC1569", "Value": 98.2}

Please look at the following compound next.
Which cell number is listed for CC[N+](CC)(CC)CC.[Cl-] [Tetraethylammonium chloride] ? 101
